Target: human M2 receptor (Homo sapiens, UniProt P08172)
Sequence (P08172 1-466): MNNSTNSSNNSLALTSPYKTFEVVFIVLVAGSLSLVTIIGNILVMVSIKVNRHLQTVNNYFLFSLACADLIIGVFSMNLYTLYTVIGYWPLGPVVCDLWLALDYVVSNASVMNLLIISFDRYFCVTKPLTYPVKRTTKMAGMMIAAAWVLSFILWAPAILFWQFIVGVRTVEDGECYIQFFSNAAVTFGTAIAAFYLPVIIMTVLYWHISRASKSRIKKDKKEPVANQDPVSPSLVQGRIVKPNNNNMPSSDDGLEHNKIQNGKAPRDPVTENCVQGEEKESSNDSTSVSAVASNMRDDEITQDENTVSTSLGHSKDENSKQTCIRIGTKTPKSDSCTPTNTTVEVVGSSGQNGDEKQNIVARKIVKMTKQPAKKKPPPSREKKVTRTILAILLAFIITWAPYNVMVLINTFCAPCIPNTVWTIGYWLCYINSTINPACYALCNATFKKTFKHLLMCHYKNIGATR
Conditions: read-out: Efficiency, boosting of the acetylcholine effect at EC20 acetylcholine concentration; M2-GIRK1/4 reporter cells
attribute measured: Emax (%)

COC1(C)CN(c2ccc3c(=O)c(C(=O)NC45CC(C4)C5)cn(-c4c(F)cc(F)cc4F)c3n2)C1 :: 100
O=C(N[C@@H](C1CC1)C(F)(F)F)c1cn(-c2c(F)cc(F)cc2F)c2nc(N3CC[C@@H](O)C3=O)ccc2c1=O :: 100
O=C(NC(C1CCC1)C(F)(F)F)c1cn(-c2c(F)cc(F)cc2F)c2nc(N3C[C@@H](O)CC3=O)ccc2c1=O (mixture of isomers) [Example 505] :: 100

----------
Biological target: human M2 receptor (Homo sapiens)
Settings: read-out: Efficiency, boosting of the acetylcholine effect at EC20 acetylcholine concentration; M2-GIRK1/4 reporter cells
attribute measured: Emax (%)

CC[C@H](NC(=O)c1cn(-c2c(F)cc(F)cc2Cl)c2nc(N3C[C@@H](O)CC3=O)ccc2c1=O)C(F)(F)F [Example 398] :: 100
CCC1CCN(c2ccc3c(=O)c(C(=O)N[C@@H](C4CC4)C(F)(F)F)cn(-c4c(F)cc(F)cc4F)c3n2)C(=O)N1 (single isomer, unassigned) [Example 447] :: 93
CC[C@@H](NC(=O)c1cn(-c2c(F)cccc2F)c2nc(N3C[C@@H](O)[C@@H](O)C3)ccc2c1=O)C(F)(F)F [Example 648] :: 96.5
O=C(N[C@@H](C1CC1)C(F)(F)F)c1cn(-c2c(F)cc(F)cc2F)c2nc(N3CCC[C@H]3CO)ccc2c1=O [Example 660] :: 84.5
O=C(N[C@H](C1CC1)C(F)(F)F)c1cn(-c2c(F)cc(F)cc2Cl)c2nc(N3C[C@@H](O)CC3=O)ccc2c1=O [Example 414] :: 100
CCC(NC(=O)c1cn(-c2c(F)cc(F)cc2F)c2nc(N3C[C@@H](O)CC3=O)ccc2c1=O)C(F)(F)C(F)(F)F (single isomer, unassigned) [Example 520] :: 100
O=C(NC1(CC(F)(F)F)CC1)c1cn(-c2c(F)cc(F)cc2F)c2nc(N3C[C@@H](O)[C@H](O)C3)ccc2c1=O [Example 635] :: 100
O=C(NC(c1ccccc1Cl)C(F)(F)F)c1cn(-c2c(F)cc(F)cc2F)c2nc(N3C[C@@H](O)[C@H](O)C3)ccc2c1=O (mixture of isomers) [Example 560] :: 100
O=C(N[C@@H](C1CC1)C(F)(F)F)c1cn(-c2c(F)cc(F)cc2F)c2nc(N3CC4(COC4)C3)ccc2c1=O [Example 492] :: 97.5
CC[C@@H](NC(=O)c1cn(-c2c(F)cccc2F)c2nc(N3C[C@@H](O)[C@H](O)C3)ccc2c1=O)C(F)(F)F [Example 618] :: 99
O=C(NC12CC(F)(C1)C2)c1cn(-c2c(F)cc(F)cc2Cl)c2nc(N3C[C@@H](O)CC3=O)ccc2c1=O [Example 397] :: 90
CC[C@@H](NC(=O)c1cn(-c2ccc(F)cc2F)c2nc(N3C(=O)CCC3C)ccc2c1=O)C(F)(F)F (mixture of isomers) [Example 426] :: 92
O=C(NC(c1ccccc1Cl)C(F)(F)F)c1cn(-c2c(F)cc(F)cc2F)c2nc(N3C[C@@H](O)CC3=O)ccc2c1=O (mixture of isomers) [Example 532] :: 92
O=C(N[C@@H](C1CC1)C(F)(F)F)c1cn(-c2c(F)cc(F)cc2F)c2nc(N3CCOC(CO)C3)ccc2c1=O (single isomer, unassigned) [Example 464] :: 82.5
CC(NC(=O)c1cn(-c2c(F)cc(F)cc2F)c2nc(N3C[C@@H](O)CC3=O)ccc2c1=O)C(F)(F)C(F)(F)F (mixture of isomers) [Example 529] :: 96
O=C(N[C@H](C1CC1)C(F)(F)F)c1cn(-c2c(Cl)cc(F)cc2Cl)c2nc(N3CCNC3=O)ccc2c1=O [Example 647] :: 92
CCC(COC(F)(F)F)NC(=O)c1cn(-c2c(F)cc(F)cc2F)c2nc(N3C[C@@H](O)CC3=O)ccc2c1=O (single isomer, unassigned) [Example 411] :: 100
O=C(N[C@@H](C1CC1)C(F)(F)F)c1cn(-c2c(F)cc(F)cc2F)c2nc(N3CC[C@H](O)C3=O)ccc2c1=O [Example 467] :: 97.5
COC(=O)N1CCN(c2ccc3c(=O)c(C(=O)N[C@@H](C4CC4)C(F)(F)F)cn(-c4c(F)cc(F)cc4F)c3n2)CC1 [Example 603] :: 89.5
O=C(N[C@@H](C1CC1)C(F)(F)F)c1cn(-c2c(F)cccc2F)c2nc(N3CCNC3=O)ccc2c1=O [Example 644] :: 85
CC1(O)CCCN(c2ccc3c(=O)c(C(=O)N[C@@H](C4CC4)C(F)(F)F)cn(-c4c(F)cc(F)cc4F)c3n2)C1 (stereo partly shown) [Example 665] :: 92.5
CO[C@H]1CCN(c2ccc3c(=O)c(C(=O)N[C@@H](C4CC4)C(F)(F)F)cn(-c4c(F)cc(F)cc4F)c3n2)C1 [Example 535] :: 100
CCC(COC(F)(F)F)NC(=O)c1cn(-c2c(F)cc(F)cc2F)c2nc(N3C[C@@H](O)[C@H](O)C3)ccc2c1=O (mixture of isomers) [Example 576] :: 99.5
CC[C@@H](NC(=O)c1cn(-c2ccc(F)cc2F)c2nc(N3CC(C)NC3=O)ccc2c1=O)C(F)(F)F (single isomer, unassigned) [Example 432] :: 94
CC[C@@H](NC(=O)c1cn(-c2c(F)cc(F)cc2Cl)c2nc(N3CC4CC4(O)C3)ccc2c1=O)C(F)(F)F (stereo partly shown) [Example 406] :: 88
